Just for reference, the supplement of paper PMC6755084 is where these values come from.

B1: F1*; the commonest letter at each place (parent)
chain: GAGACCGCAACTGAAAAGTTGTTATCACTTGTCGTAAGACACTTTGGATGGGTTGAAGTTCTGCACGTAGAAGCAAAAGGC

Variants of: B1
Test: fraction ligated after 30 min (ligated reads / total reads); higher = more ligase activity
Conditions: with F1*sub RNA substrate (template-directed ligation), 42 °C
ENDPOINT_LABEL: fraction ligated
Give bare numbers.

| ORDERED_RESIDUES | REPORTED |
| --- | --- |
| GAGACCGCAACTGAAAAGTTGTTACCACCTGTCGTAAGACACTTTGGATGGGTTGAAGTTCTGCACGTAGAAGCAAAAGGC [T25C T29C] | 0.781 |
| GAGACCGCAACTGAAAAGTTGTTATCACTTGTCGGAAGATACTTTGGATGGGTTGAAGTTCTGCACGTAGAAGCAAAAGGC [T35G C40T] | 0.851 |
| GAGACCGCAACTGAAAAGTTGTAATCACTTGACGTAAGACACTTTGGATGGGTTGAAGTTCTGCACGTAGAAGCAAAAGGC [T23A T32A] | 0.859 |
| GAGACCGCAACTGAAAAGTTGTTATTACATGTCGTAAGACACTTTGGATGGGTTGAAGTTCTGCACGTAGAAGCAAAAGGC [C26T T29A] | 0.845 |
| GAGACCGCAACTGAAAAGTTGTTATCTCTTGTCGTAAGTCACTTTGGATGGGTTGAAGTTCTGCACGTAGAAGCAAAAGGC [A27T A39T] | 0.783 |

For every item below, please supply its fraction ligated.
1. GAGACCGCAACTGAAAAGTTGTTATCACTTGTCGTAAGACACTCTGGATCGGTTGAAGTTCTGCACGTAGAAGCAAAAGGC [T44C G50C]
2. GAGACCGCAACTGAAAAGTTGTTATCACTTGTCGTAAGACAATTTGGATGGGTTGCAGTTCTGCACGTAGAAGCAAAAGGC [C42A A56C]
3. GAGACCGCAACTGAAAAGTTGTTCTCACTTGTCGTAAGACAGTTTGGATGGGTTGAAGTTCTGCACGTAGAAGCAAAAGGC [A24C C42G]
4. GAGACCGCAACTGAAAAGTTGTTATCACTTGTGTTAAGACACTTTGGATGGGTTGAAGTTCTGCACGTAGAAGCAAAAGGC [C33G G34T]
5. GAGACCGCAACTGAAAAGTTGTTATCACTTGTCGTAATACACTTTGGATGGGTTAAAGTTCTGCACGTAGAAGCAAAAGGC [G38T G55A]
6. GAGACCGCAACTGAAAAGTTGTTATCACCTGTCGTAAGACACTATGGATGGGTTGAAGTTCTGCACGTAGAAGCAAAAGGC [T29C T44A]
7. GAGACCGCAACTGAAAAGTTGTTACCACTTGTCGTAAGACACTTTGGTTGGGTTGAAGTTCTGCACGTAGAAGCAAAAGGC [T25C A48T]

Result ::
1. 0.224
2. 0.794
3. 0.775
4. 0.856
5. 0.823
6. 0.802
7. 0.815

For every item below, please supply its fraction ligated.
1. GAGACCGCAACTGAAAAGTTGTTATCACATGTCGTAAGACAGTTTGGATGGGTTGAAGTTCTGCACGTAGAAGCAAAAGGC [T29A C42G]
2. GAGACCGCAACTGAAAAGTTGTTATCACTTGTCGTAAGAAACTTTGGATGGGTTGAAGTTCTGCACGTAGAAGCAAAAGGC [C40A]
3. GAGACCGCAACTGAAAAGTTGTTATCACGTGTCGTAAGACGCTTTGGATGGGTTGAAGTTCTGCACGTAGAAGCAAAAGGC [T29G A41G]
4. GAGACCGCAACTGAAAAGTTGTTATCACTTGCCGTAAGCCACTTTGGATGGGTTGAAGTTCTGCACGTAGAAGCAAAAGGC [T32C A39C]
5. GAGACCGCAACTGAAAAGTTGTTGTCACTTGTCGTAAGACACTTTGGATGGGTTAAAGTTCTGCACGTAGAAGCAAAAGGC [A24G G55A]
6. GAGACCGCAACTGAAAAGTTGTTATCACGTGTCGTAAGACACTTTAGATGGGTTGAAGTTCTGCACGTAGAAGCAAAAGGC [T29G G46A]
7. GAGACCGCAACTGAAAAGTTGTTATCACTTGTCATCAGACACTTTGGATGGGTTGAAGTTCTGCACGTAGAAGCAAAAGGC [G34A A36C]
8. GAGACCGCAACTGAAAAGTTGTTAGCACTTGTCGTATGACACTTTGGATGGGTTGAAGTTCTGCACGTAGAAGCAAAAGGC [T25G A37T]

Result ::
[0.867, 0.833, 0.815, 0.772, 0.685, 0.832, 0.83, 0.808]

For every item below, please supply its fraction ligated.
1. GAGACCGCAACTGAAAAGTTGTCATCACTTGTCGTAACACACTTTGGATGGGTTGAAGTTCTGCACGTAGAAGCAAAAGGC [T23C G38C]
2. GAGACCGCAACTGAAAAGTTGTTATCACTTGTCGTAAGACGCTTTGGATGGGTTGCAGTTCTGCACGTAGAAGCAAAAGGC [A41G A56C]

Result ::
1: 0.802; 2: 0.755
